Origin of the recorded values: the supplement of paper PMC6555819

System: VDR:RXRa (NR concentration 270 nM, RXRa partner concentration 90 nM)
assay-remarks: PBM binding z-score (relative to random genomic background probes); higher = stronger binding; sequences stand for … in GC…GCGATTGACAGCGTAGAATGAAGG
result-type: PBM binding z-score

| seq | result-type | readout-value |
| --- | --- | --- |
| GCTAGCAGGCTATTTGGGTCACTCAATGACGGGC | PBM binding z-score | 0.0221 |
| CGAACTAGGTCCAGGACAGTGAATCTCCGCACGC | PBM binding z-score | -0.573 |
| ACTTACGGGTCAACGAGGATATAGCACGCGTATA | PBM binding z-score | 6.51 |
| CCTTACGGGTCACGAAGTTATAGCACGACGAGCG | PBM binding z-score | 3.91 |
| TCTCGGAGGACACGAAGGTCAGAGCCTTCCAGAG | PBM binding z-score | 2.42 |
| ATCTCTAGGTAAAACTTCAGTGAATCCCGAGGAT | PBM binding z-score | -0.0846 |

----------
Listed sequences paired with reported PBM binding z-score
Test system: PPARg:RXRa 270nM:90nM, anti-RXR (NR concentration 270 nM, RXRa partner concentration 90 nM)
assay-remarks: PBM binding z-score (relative to random genomic background probes); higher = stronger binding; sequences stand for … in GC…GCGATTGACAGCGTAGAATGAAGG

| seq | PBM binding z-score |
| --- | --- |
| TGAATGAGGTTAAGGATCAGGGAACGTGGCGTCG | 4.57 |
| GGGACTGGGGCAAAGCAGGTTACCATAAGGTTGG | 3.37 |
| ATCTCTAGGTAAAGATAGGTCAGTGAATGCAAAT | 1.24 |
| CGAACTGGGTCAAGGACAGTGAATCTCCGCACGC | 6.03 |
| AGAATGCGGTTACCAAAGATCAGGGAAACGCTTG | 0.104 |
| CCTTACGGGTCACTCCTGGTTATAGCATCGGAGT | 3.54 |
| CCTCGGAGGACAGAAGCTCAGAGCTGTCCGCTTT | -1.61 |
| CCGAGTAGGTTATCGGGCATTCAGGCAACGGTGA | 2.7 |
| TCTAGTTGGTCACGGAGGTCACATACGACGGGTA | 3.94 |
| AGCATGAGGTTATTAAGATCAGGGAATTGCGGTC | 1.13 |
| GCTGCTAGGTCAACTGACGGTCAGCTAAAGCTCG | 3.37 |
| GCGACTGGGTCAAAGCAGGTTACCATAAGGTTGG | 4.75 |
| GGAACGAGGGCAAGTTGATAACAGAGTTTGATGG | 1.14 |
| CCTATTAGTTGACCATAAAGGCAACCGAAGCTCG | 0.275 |
| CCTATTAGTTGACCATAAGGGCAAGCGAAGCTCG | 0.458 |
| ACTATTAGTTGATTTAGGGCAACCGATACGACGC | 0.588 |
| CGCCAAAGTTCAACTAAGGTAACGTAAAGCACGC | 5.02 |
| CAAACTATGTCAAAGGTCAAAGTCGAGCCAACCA | 10.2 |
| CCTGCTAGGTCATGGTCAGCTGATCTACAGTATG | 3.1 |
| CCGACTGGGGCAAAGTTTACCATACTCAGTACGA | 7.72 |
| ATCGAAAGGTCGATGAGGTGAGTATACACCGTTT | 2.19 |
| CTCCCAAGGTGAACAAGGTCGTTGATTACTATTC | 1.07 |
| TCTTGTAGATCAATAGAGGTTAAGATAGTGCGCT | 1.59 |
| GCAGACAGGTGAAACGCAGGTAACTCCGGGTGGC | 0.0906 |
| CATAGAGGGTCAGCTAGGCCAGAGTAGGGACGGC | 2.06 |
| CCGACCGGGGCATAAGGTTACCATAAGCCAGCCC | 1.45 |
